ASSAY_PROTOCOL: blockers of Clostridium difficile growth – HTS, primary screen (AID 1259249);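 also: 0% = DMSO wells and -100% = levofloxacin 16 µg/mL wells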
MEASUREMENT_CONDITIONS: Clostridium difficile clinical isolate growth, OD600, 24 h; active compounds read low; screened at 16 µg/mL (by protocol)
About 220 (0.26%) of roughly 86,000 compounds were called active. Many of the other results were omitted from the sample, so actives are more common in it than they were.
ASSAY_READOUT: growth activity, negative = inhibition (%)
Hi! Could you send only the number? It should be in %, unit omitted.

For orientation, consider the following solved cases.
COc1ccc(S(=O)(=O)NC[C@@H]2CC[C@@H]3[C@@H](CN3Cc3cc(F)ccc3F)O2)cc1 :: -8.36
CN1c2ccc(-c3ccccc3)cc2[C@H]2[C@H](CCN2C(=O)c2ccc3c(c2)OCO3)[C@H]1CO :: -20.7
O=C(NCC1CC1)[C@@H]1[C@@H](CO)[C@@H]2Cn3c(ccc(-c4ccccc4)c3=O)[C@H]1N2Cc1nccs1 :: -2.44
CO[C@@H]1CN(C)C(=O)c2ccc(NC(=O)C3CC3)cc2OC[C@H](C)N(C(C)=O)C[C@H]1C :: 0.555
Cc1nc(N2[C@H](CO)[C@H](c3ccccc3)[C@H]2CNCC2CCC2)sc1C :: 8.18

Ask: Specify growth activity, negative = inhibition for Cc1ccccc1S(=O)(=O)N1C[C@@H]2N[C@H](C1)C2c1ccc(-c2cccc(C(=O)N(C)C)c2)cc1 (stereo partly drawn) and stop.
Reply: 4.24

Ask: Specify growth activity, negative = inhibition for COCC#Cc1ccc([C@H]2[C@H]3CN(Cc4ccncc4)CCCCN3[C@H]2CO)cc1 and stop.
Reply: 13.5

Ask: Specify growth activity, negative = inhibition for COCC(=O)N1CC2(C1)[C@@H](c1ccc(-c3cccc(F)c3)cc1)[C@@H](CO)N2C(=O)COC and stop.
Reply: -0.178

====

ASSAY_PROTOCOL: blockers of Clostridium difficile growth – HTS, primary screen (AID 1259249);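 also: 0% = DMSO wells and -100% = levofloxacin 16 µg/mL wells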
MEASUREMENT_CONDITIONS: Clostridium difficile clinical isolate growth, OD600, 24 h; active compounds read low; screened at 16 µg/mL (by protocol)
The whole screen tested about 86,000 compounds, of which about 220 (0.26%) were called active. The sample holds actives, similar compounds and a random draw of the others, so the mix is not that of the screen.
Let's look at some molecules and their measured growth activity, negative = inhibition.
Hi! Could you send only the number? It should be in %, unit omitted.

For orientation, consider the following solved cases.
COc1ccc(CN(C)C[C@H]2OCc3cn(nn3)CCCC(=O)N([C@@H](C)CO)C[C@@H]2C)cc1 :: -0.425
O=C(C[C@@H]1C=C[C@@H](NS(=O)(=O)c2ccccc2)[C@H](CO)O1)N1CCN(c2ccccc2)CC1 :: 0.541
C[C@@H]1CN([C@@H](C)CO)C(=O)c2cc(-c3cccnc3)cnc2O[C@@H]1CN(C)C(=O)C1CC1 :: 4.12

Ask: Specify growth activity, negative = inhibition for CCCNC(=O)N1[C@H](CO)[C@@H]2c3ccccc3N(C(=O)C3CC3)C[C@@H]21 and stop.
Reply: 1.07

Ask: Specify growth activity, negative = inhibition for CO[C@H]1CN(C)C(=O)c2ccc(NS(=O)(=O)c3ccccc3)cc2OC[C@H](C)N(Cc2nccs2)C[C@@H]1C and stop.
Reply: 1.37

====

ASSAY_PROTOCOL: blockers of Clostridium difficile growth – HTS, primary screen (AID 1259249);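 also: 0% = DMSO wells and -100% = levofloxacin 16 µg/mL wells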
MEASUREMENT_CONDITIONS: Clostridium difficile clinical isolate growth, OD600, 24 h; active compounds read low; screened at 16 µg/mL (by protocol)
Screen size: about 86,000 compounds; about 220 (0.26%) were called active. The sample as a whole holds a higher share of actives than the screen did.
Let's look at some compounds and their measured growth activity, negative = inhibition.
Hi! Could you send only the number? It should be in %, unit omitted.

O=C(C[C@H]1C[C@@H]2c3cc(NC(=O)C4CCOCC4)ccc3O[C@@H]2[C@H](CO)O1)NCC1CC1 :: -3.84
Cc1ccc(-c2ccc3c(c2)O[C@H](CN(C)C(=O)CC2CC2)[C@@H](C)CN([C@H](C)CO)S3(=O)=O)cc1 :: 3.19
C/C=C/c1ccc([C@@H]2[C@H](CO)N(C(=O)c3cnccn3)C23CN(C(C)=O)C3)cc1 :: 2.93

Ask: Specify growth activity, negative = inhibition for N[C@@H]1CC[C@H](CCn2cc(C3CC3)nn2)O[C@@H]1CO and stop.
Reply: 5.59

====

ASSAY_PROTOCOL: blockers of Clostridium difficile growth – HTS, primary screen (AID 1259249);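 also: 0% = DMSO wells and -100% = levofloxacin 16 µg/mL wells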
MEASUREMENT_CONDITIONS: Clostridium difficile clinical isolate growth, OD600, 24 h; active compounds read low; screened at 16 µg/mL (by protocol)
Among all 86,000 compounds or so, about 220 (0.26%) were called active. The entries come from a sample that favours actives as a whole.
ASSAY_READOUT: growth activity, negative = inhibition

Ask: Specify growth activity, negative = inhibition for COc1ccc2c3c(n(C)c2c1)[C@H](CO)N(C(=O)c1ccncc1)CC31CCN(CC2CC2)CC1 and stop.
Reply: -4.02% (inactive)

Ask: Specify growth activity, negative = inhibition for COc1ccc(C#Cc2ccc([C@@H]3[C@H](CO)N4C(=O)CN(C(C)=O)C[C@@H]34)cc2)cc1 and stop.
Reply: -6.73% (inactive)

Ask: Specify growth activity, negative = inhibition for C/C=C/c1ccc([C@@H]2[C@H](CO)N(CCC(F)(F)F)C23CN(C(=O)CC)C3)cc1 and stop.
Reply: 8.71% (inactive)

Ask: Specify growth activity, negative = inhibition for CO[C@@H]1CN(C)C(=O)c2ccc(NC(=O)NC(C)C)cc2OC[C@@H](C)N(C)C[C@H]1C and stop.
Reply: -0.836% (inactive)

Ask: Specify growth activity, negative = inhibition for COc1cccc(NC(=O)N(C)C[C@@H]2Oc3ncc(Br)cc3C(=O)N([C@@H](C)CO)C[C@H]2C)c1 and stop.
Reply: 4.14% (inactive)

====

ASSAY_PROTOCOL: blockers of Clostridium difficile growth – HTS, primary screen (AID 1259249);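 also: 0% = DMSO wells and -100% = levofloxacin 16 µg/mL wells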
MEASUREMENT_CONDITIONS: Clostridium difficile clinical isolate growth, OD600, 24 h; screened at 16 µg/mL (by protocol)
Screen size: about 86,000 compounds; about 220 (0.26%) were called active.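 Rule for the calls: active = mean growth activity at or below -80% and every replicate also at or below -80%; inconclusive = mean at or below -80% but some replicate above -80%; inactive = mean growth activity above -80%.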 The sample as a whole holds a higher share of actives than the screen did.
Lab note: assign the record to one of active, inactive

CC(C)C#Cc1ccc2c(c1)O[C@@H](CN(C)C(=O)Nc1ccccc1)[C@H](C)CN([C@H](C)CO)S2(=O)=O :: inactive
CCCNC(=O)N(C)C[C@H]1Oc2ncc(-c3cccc(C#N)c3)cc2C(=O)N([C@@H](C)CO)C[C@@H]1C :: inactive
C/C=C/c1ccc([C@H]2[C@H](CO)N(C(=O)CN(C)C)C23CN(C(=O)C2CC2)C3)cc1 :: inactive

Ask: # outcome recorded in this test, key = CN1c2ccc(-c3cccc(F)c3)cc2[C@H]2[C@H](CCN2C(=O)c2cccc(F)c2)[C@H]1CO
Reply: inactive

Ask: # outcome recorded in this test, key = CO[C@H]1CN(C)C(=O)c2ccc(NC(=O)C3CCCC3)cc2OC[C@H](C)N(C(=O)CC2CC2)C[C@@H]1C
Reply: inactive

Ask: # outcome recorded in this test, key = COc1ccc(CN(C)C[C@@H]2OCCCC[C@@H](C)Oc3ccc(NC(=O)Nc4ccc(C(F)(F)F)cc4)cc3C(=O)N([C@H](C)CO)C[C@H]2C)cc1
Reply: active

Ask: # outcome recorded in this test, key = COc1ccccc1C#Cc1ccc2c(c1)O[C@H](CN(C)Cc1cccnc1)[C@@H](C)CN([C@H](C)CO)S2(=O)=O
Reply: inactive

Ask: # outcome recorded in this test, key = CO[C@H]1CN(C)C(=O)c2ccc(NC(=O)c3cnccn3)cc2OC[C@H](C)N(C)C[C@@H]1C
Reply: inactive

====

Let's look at some compounds and their measured growth activity, negative = inhibition.
ASSAY_PROTOCOL: blockers of Clostridium difficile growth – HTS, primary screen (AID 1259249);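 also: 0% = DMSO wells and -100% = levofloxacin 16 µg/mL wells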
MEASUREMENT_CONDITIONS: Clostridium difficile clinical isolate growth, OD600, 24 h; active compounds read low; screened at 16 µg/mL (by protocol)
Hit rate of the full screen: of about 86,000 compounds, about 220 (0.26%) were called active. The list comes from a sample in which actives are over-represented; it also holds close analogues and randomly drawn compounds.

For orientation, consider the following solved cases.
CC=Cc1ccc2n(c1=O)C[C@H]1[C@H](CO)[C@@H](C(=O)NCCc3cn(C)cn3)[C@@H]2N1C(=O)CC (mixture of isomers) :: 1.45% (inactive)
CN1C(=O)c2cc(NC(=O)c3cnccn3)ccc2OC[C@H]2O[C@@H](CC(=O)NCC3CCCCC3)CC[C@@H]21 :: 0.457% (inactive)
C[C@@H]1CN([C@@H](C)CO)C(=O)Cc2cc(NC(=O)Nc3ccc(C(F)(F)F)cc3)ccc2O[C@H]1CN(C)Cc1ccc(C(=O)O)cc1 :: 4.68% (inactive)

Turning now to a further compound:
Ask: Specify growth activity, negative = inhibition for COc1cccc(NC(=O)N2C[C@@H](O)COC[C@@H]3O[C@@H](CC(=O)NC4CCC4)CC[C@H]32)c1 and stop.
Reply: 5.76% (inactive)
